B1: FERM and PDZ domain-containing protein 4, residues 75 to 154; numbered along this chain, Q14CM0 (parent)
chain: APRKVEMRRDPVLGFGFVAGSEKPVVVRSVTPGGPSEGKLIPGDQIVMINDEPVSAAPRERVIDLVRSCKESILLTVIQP

Variants of: B1
Assay: abundance fitness (aPCA) (normalised: wild type 0, dead -1); higher = more abundant; growth selection in yeast, the domain comes from the species named
Details: Homo sapiens
reported.metric: abundance fitness

IN: Specify abundance fitness for G33H and stop.
OUT: -0.101

IN: Given the variant V47S , write its reported abundance fitness.
OUT: -0.098

IN: Give the measured abundance fitness for V30C
OUT: -0.102
